B1: CPEB3 Ribozyme (parent)
chain: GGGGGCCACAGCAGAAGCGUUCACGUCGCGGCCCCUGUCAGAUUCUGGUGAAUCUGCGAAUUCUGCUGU

- Variants of: B1
- Assay procedure: self-cleavage, relative activity (ratio to wild type); higher = more cleavage; co-transcriptional
This section presents variants with their documented self-cleavage values.
No unit in the answer, please; the number alone is enough.

- Mutation label: "C39A G50A"
  Observed value: 0.912

Request: For G2A G56A , what is its reported self-cleavage?
Result: 0.1

Request: For A23U C39U , what is its reported self-cleavage?
Result: 0.921

Request: For A23C C45G , what is its reported self-cleavage?
Result: 0.931

Request: For U53G G56C , what is its reported self-cleavage?
Result: 0.331

Request: For G2U G65U , what is its reported self-cleavage?
Result: 0.0743

Request: For G11U C63U , what is its reported self-cleavage?
Result: 0.498

Request: For C12U A59G , what is its reported self-cleavage?
Result: 0.968

Request: For A13U C29G , what is its reported self-cleavage?
Result: 0.0771

Request: For U38G C57U , what is its reported self-cleavage?
Result: 0.282

Request: For C57G A59U , what is its reported self-cleavage?
Result: 0.388

Request: For G2C U38C , what is its reported self-cleavage?
Result: 0.0174

Request: For G14C C57A , what is its reported self-cleavage?
Result: 0.325

Request: For G17A U21G , what is its reported self-cleavage?
Result: 0.128

Request: For C12G U21A , what is its reported self-cleavage?
Result: 0.845

Request: For C7U A13C , what is its reported self-cleavage?
Result: 0.871

Request: For A16C G37A , what is its reported self-cleavage?
Result: 0.0923

Request: For G11U G50C , what is its reported self-cleavage?
Result: 0.797

Request: For C35U A51G , what is its reported self-cleavage?
Result: 0.904
